The reported numbers originate from patent US9365591B2.

system.under.test: human 5-HT2B receptor (Homo sapiens)
Sequence (P41595 whole entry): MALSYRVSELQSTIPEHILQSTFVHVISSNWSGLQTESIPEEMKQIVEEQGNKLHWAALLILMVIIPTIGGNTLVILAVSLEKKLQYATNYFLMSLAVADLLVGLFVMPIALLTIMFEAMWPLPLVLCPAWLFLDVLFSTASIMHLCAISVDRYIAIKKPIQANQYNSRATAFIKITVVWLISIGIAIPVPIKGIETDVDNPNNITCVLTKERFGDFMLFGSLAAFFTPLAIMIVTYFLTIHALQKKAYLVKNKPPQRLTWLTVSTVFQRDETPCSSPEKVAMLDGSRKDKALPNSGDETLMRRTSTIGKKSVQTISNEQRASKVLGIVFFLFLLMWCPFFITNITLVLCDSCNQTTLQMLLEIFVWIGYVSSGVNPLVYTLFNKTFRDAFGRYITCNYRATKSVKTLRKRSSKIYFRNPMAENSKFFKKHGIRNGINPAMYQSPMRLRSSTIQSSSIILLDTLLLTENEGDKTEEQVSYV
measurement.protocol: Aequorin assay, agonist activity at the 5-HT2B receptor
test.context: CHO-K1 cells coexpressing apoaequorin and recombinant human 5-HT2B; reference agonist; read-out: EC50, agonism of the 5-HT2B receptor
assay.metric: EC50
Note to self: number, then unit, no commentary.

Data point: CC(N)Cc1c[nH]c2ccc(O)cc12 (stereo not drawn) [α-methyl-5-HT, reference compound] ; EC50 = 1.01 nM
